The entries below come with measured IC50 values attached.
- test details: cells
- details: Homo sapiens, SU.86.86, 72 h
Number only, in µM; omit the unit.

Solved cases below.
compound smiles | value unit | experimental value
O=C(CCCCCCC(=O)Nc1cccc(-n2cc(C3CCCCC3)nn2)c1)NO | µM | 0.9
O=C(CCCCCCC(=O)Nc1cccc(-c2cn(-c3ccc(I)cc3)nn2)c1)NO | µM | 7.7
Nc1ccccc1NC(=O)CCCCCCC(=O)Nc1cccc(-n2cc(-c3ccccc3)nn2)c1 | µM | 32

Here's the next entry for you.
INPUT: Given the entry `O=C(CCCCCCC(=O)Nc1cccc(-c2cn(C3CCCCC3)nn2)c1)NO` , report its measured IC50.
OUTPUT: 0.1

====

- System: MIA PaCa-2
- test details: cells
- details: Homo sapiens, MIA PaCa-2, 72 h
Some compounds, each annotated with its measured pIC50.
// scale note: pIC50 = -log10(conc_M); give the bare number

compound smiles | test system | recorded metric | experimental value
O=C(CCCCCCC(=O)Nc1cccc(-c2cn(C3CCCCC3)nn2)c1)NO | MIA PaCa-2 | pIC50 | 7.00

INPUT: Value lookup for pIC50; key = `O=C(CCCCCCC(=O)Nc1cccc(-c2cn(-c3ccc(I)cc3)nn2)c1)NO`
OUTPUT: 5.63

INPUT: Now consider `O=C(CCCCCCC(=O)Nc1cccc(-n2cc(C3CCCCC3)nn2)c1)NO` and answer again.
OUTPUT: 7.00

====

Dear all, this message contains IC50 results, target or system Histone deacetylase 3 (Homo sapiens).
Give the quantity in nM, number only.

compound smiles | IC50 (nM)
O=C(CCCCCCC(=O)Nc1cccc(-c2cn(C3CCCCC3)nn2)c1)NO | 3.7

Now for another entry.
INPUT: Reported IC50 for `O=C(CCCCCCC(=O)Nc1cccc(-n2cc(C3CCCCC3)nn2)c1)NO` : what is it?
OUTPUT: 5.3

====

- test system: Polyamine deacetylase HDAC10 (Homo sapiens)
- Sequence (Q969S8 whole entry): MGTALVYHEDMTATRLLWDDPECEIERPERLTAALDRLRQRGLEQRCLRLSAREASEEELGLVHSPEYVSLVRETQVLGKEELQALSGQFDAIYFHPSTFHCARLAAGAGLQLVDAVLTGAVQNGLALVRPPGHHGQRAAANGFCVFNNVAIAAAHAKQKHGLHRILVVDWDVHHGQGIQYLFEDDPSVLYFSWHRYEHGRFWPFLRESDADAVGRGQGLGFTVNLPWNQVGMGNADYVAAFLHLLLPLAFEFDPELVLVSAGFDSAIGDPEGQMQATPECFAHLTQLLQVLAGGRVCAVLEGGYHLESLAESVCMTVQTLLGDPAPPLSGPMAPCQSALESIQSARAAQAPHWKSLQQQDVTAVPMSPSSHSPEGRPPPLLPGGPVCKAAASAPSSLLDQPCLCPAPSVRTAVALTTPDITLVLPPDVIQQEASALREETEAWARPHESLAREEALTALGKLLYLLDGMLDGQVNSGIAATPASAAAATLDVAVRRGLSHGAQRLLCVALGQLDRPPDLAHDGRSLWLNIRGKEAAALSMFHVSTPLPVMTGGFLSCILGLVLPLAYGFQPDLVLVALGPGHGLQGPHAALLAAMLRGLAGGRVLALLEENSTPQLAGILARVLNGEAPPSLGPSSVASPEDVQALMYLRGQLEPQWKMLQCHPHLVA
recorded metric: pIC50
Answer as the number alone; pIC50 is minus log10 of concentration in mol/L.

Worked examples follow.
compound smiles | pIC50
O=C(CCCCCCC(=O)Nc1cccc(-n2cc(-c3ccccc3)nn2)c1)NO | 8.17
O=C(CCCCCCC(=O)Nc1cccc(-c2cn(C3CCCCC3)nn2)c1)NO | 8.01
O=C(CCCCCCC(=O)Nc1cccc(-c2cn(-c3cc(CO)cc(CO)c3)nn2)c1)NO | 8.24
O=C(CCCCCCC(=O)Nc1cccc(-n2cc(C3CCCCC3)nn2)c1)NO | 7.78

Please turn your attention to the following entry.
INPUT: Which pIC50 is reported with Polyamine deacetylase HDAC10 (Homo sapiens) for this entry: `O=C(CCCCCCC(=O)Nc1cccc(-c2cn(-c3ccc(I)cc3)nn2)c1)NO` ?
OUTPUT: 7.97

====

Below, each of the molecules is paired with its reported IC50 value.
- Test system: HuP-T3
- test details: cells
- details: Homo sapiens, HuP-T3, 72 h
Number in µM, nothing else.

INPUT: Which IC50 is reported for this molecule? `O=C(CCCCCCC(=O)Nc1cccc(-c2cn(-c3ccc(I)cc3)nn2)c1)NO`
OUTPUT: 1.4

INPUT: Next record, please: `O=C(CCCCCCC(=O)Nc1cccc(-c2cn(C3CCCCC3)nn2)c1)NO`
OUTPUT: 0.4

INPUT: Can you check `O=C(CCCCCCC(=O)Nc1cccc(-n2cc(C3CCCCC3)nn2)c1)NO` next?
OUTPUT: 0.4

====

Target or system UniProt Q9BY41: recorded IC50 listed per item.
Sequence (Q9BY41 whole entry): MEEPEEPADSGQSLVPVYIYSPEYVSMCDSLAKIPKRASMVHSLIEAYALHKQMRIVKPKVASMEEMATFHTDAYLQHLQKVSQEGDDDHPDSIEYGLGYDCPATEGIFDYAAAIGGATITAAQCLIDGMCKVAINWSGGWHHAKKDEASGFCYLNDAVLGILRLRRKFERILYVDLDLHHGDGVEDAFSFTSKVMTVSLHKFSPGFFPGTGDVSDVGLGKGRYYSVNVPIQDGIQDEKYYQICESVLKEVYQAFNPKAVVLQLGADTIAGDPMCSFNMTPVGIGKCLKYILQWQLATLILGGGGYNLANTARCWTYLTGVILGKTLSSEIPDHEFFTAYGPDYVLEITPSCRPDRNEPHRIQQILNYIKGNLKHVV
Respond with the bare value in nM.

INPUT: # get_value(readout='IC50', item= `O=C(CCCCCCC(=O)Nc1cccc(-n2cc(C3CCCCC3)nn2)c1)NO` )
OUTPUT: 2750

INPUT: Please answer likewise for `O=C(CCCCCCC(=O)Nc1cccc(-c2cn(C3CCCCC3)nn2)c1)NO`
OUTPUT: 1190

INPUT: // next record `O=C(CCCCCCC(=O)Nc1cccc(-c2cn(-c3cc(CO)cc(CO)c3)nn2)c1)NO`
OUTPUT: 1320

INPUT: Moving on to `O=C(CCCCCCC(=O)Nc1cccc(-c2cn(-c3ccc(F)cc3)nn2)c1)NO`
OUTPUT: 12000

====

- test system: UniProtKB Q92769
- Sequence (Q92769 whole entry): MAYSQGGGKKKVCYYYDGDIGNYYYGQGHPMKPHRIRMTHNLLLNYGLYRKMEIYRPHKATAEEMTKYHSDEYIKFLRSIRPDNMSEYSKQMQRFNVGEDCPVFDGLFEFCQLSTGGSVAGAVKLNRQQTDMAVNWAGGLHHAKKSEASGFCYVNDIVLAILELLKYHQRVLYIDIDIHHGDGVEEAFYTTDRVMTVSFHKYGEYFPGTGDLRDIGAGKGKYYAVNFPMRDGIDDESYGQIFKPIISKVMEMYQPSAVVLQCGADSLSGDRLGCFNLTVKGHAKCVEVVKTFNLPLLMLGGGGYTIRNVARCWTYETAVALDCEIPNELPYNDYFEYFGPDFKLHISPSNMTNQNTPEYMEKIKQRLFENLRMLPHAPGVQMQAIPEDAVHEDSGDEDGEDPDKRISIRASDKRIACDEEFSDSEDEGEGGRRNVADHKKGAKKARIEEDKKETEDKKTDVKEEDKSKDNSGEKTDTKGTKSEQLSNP
recorded metric: IC50 (µM)
Entry rule: numbers only, all in µM.

Worked set:
compound smiles | value unit | IC50
O=C(CCCCCCC(=O)Nc1cccc(-c2cn(-c3ccc(F)cc3)nn2)c1)NO | µM | 0.06
O=C(CCCCCCC(=O)Nc1cccc(-c2cn(-c3ccc(C(F)(F)F)cc3)nn2)c1)NO | µM | 0.0285
O=C(CCCCCCC(=O)Nc1cccc(-c2cn(C3CCCCC3)nn2)c1)NO | µM | 0.0275
O=C(CCCCCCC(=O)Nc1cccc(-n2cc(-c3ccccc3)nn2)c1)NO | µM | 0.0251
O=C(CCCCCCC(=O)Nc1cccc(-c2cn(-c3ccc(I)cc3)nn2)c1)NO | µM | 0.0246

INPUT: Requested read-out: IC50. Entry: `O=C(CCCCCCC(=O)Nc1cccc(-n2cc(C3CCCCC3)nn2)c1)NO`
OUTPUT: 0.0482

====

- test system: Histone deacetylase 1 (Homo sapiens, UniProt Q13547)
- Sequence (Q13547 whole entry): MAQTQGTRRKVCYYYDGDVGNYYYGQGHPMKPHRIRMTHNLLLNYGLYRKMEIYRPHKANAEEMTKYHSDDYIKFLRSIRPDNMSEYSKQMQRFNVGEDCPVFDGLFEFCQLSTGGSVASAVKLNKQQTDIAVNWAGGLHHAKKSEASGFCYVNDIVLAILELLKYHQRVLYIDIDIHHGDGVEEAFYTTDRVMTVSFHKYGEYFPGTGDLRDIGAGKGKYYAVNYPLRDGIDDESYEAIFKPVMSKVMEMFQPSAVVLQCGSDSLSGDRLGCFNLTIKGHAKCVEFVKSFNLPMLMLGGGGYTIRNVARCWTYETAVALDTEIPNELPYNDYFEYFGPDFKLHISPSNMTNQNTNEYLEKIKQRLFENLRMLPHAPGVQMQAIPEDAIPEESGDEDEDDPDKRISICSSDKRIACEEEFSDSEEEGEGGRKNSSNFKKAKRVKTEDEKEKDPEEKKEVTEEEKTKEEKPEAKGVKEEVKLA
Lab note - cut at 8 nM for IC50: satisfied if strictly below, not satisfied if not.

Known results for compounds:
compound smiles | discrete label
O=C(CCCCCCC(=O)Nc1cccc(-c2cn(C3CCCCC3)nn2)c1)NO | not satisfied
O=C(CCCCCCC(=O)Nc1cccc(-n2cc(-c3ccccc3)nn2)c1)NO | satisfied

INPUT: Could you please tell me whether IC50 recorded for `O=C(CCCCCCC(=O)Nc1cccc(-c2cn(-c3cc(F)cc(F)c3)nn2)c1)NO` is less than 8 nM?
OUTPUT: satisfied

INPUT: Input `O=C(CCCCCCC(=O)Nc1cccc(-c2cn(-c3ccc(F)cc3)nn2)c1)NO`
OUTPUT: not satisfied

INPUT: Ok, now `O=C(CCCCCCC(=O)Nc1cccc(-c2cn(-c3ccc(C(F)(F)F)cc3)nn2)c1)NO`
OUTPUT: not satisfied

INPUT: Query `O=C(CCCCCCC(=O)Nc1cccc(-n2cc(C3CCCCC3)nn2)c1)NO` next
OUTPUT: not satisfied
